Each entry below carries its reported IC50.
Biological target: eEF2K (Homo sapiens, UniProt O00418)
Construct: in the immortalized epithelial breast cell lines, MCF10A; host or cells: MCF10A immortalized breast epithelial cells
Sequence (O00418 1-725): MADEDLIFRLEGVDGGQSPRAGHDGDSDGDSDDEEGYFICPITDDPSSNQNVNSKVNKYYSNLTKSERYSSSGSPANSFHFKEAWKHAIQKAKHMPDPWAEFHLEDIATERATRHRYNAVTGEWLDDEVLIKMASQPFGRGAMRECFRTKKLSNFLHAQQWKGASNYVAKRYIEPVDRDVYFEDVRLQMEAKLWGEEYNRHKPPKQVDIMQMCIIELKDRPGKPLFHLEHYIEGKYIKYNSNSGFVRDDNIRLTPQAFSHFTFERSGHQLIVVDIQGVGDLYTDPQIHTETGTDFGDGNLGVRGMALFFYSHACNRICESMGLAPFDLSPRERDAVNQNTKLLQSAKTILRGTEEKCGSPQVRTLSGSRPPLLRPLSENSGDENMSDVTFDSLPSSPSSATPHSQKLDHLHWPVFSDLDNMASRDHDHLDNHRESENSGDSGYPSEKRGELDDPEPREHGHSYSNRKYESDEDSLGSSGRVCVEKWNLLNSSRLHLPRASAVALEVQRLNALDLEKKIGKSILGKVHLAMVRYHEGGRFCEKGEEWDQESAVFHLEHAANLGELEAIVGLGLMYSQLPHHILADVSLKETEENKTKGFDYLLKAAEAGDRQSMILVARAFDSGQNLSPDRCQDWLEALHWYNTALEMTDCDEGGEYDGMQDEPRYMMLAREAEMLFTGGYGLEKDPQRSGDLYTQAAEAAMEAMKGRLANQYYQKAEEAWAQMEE
Assay: EF2K cell-based assay (P-EF2 AlphaLISA, 2-deoxyglucose stimulated MCF10A cells)
Conditions: 2.5 mM 2-deoxyglucose 4 h, phosphorylation of EF2 at Thr 56, pIC50 = -log IC50 (M), read-out: eEF2K_C_PThr56 pIC50 (converted)

CC1c2cccc(c2)Nc2cc(ccn2)-c2cnc(nc2)N2CC(O)CC2CCNC(=O)C2(CC2)N2CCN1CC2 (single isomer, unassigned) [Compound 65]: 3.8e-07 M
CN1CCCN(C)c2ccc(cn2)-c2ccnc(c2)Nc2cccc(c2)CN2CCN(CC2)CC1=O: > 3.02e-05 M

Give IC50 (eEF2K (Homo sapiens, UniProt O00418)) of the following molecule: O=C1CN2CCN(CC2)Cc2cccc(c2)Nc2cc(ccn2)-c2cnc(nc2)N2CC(F)CC2CCN1 (stereo not shown)
6.31e-07 M

Consider next the molecule `[N-]=[N+]=N[C@@H]1C[C@H]2CCNC(=O)CN3CCN(CC3)Cc3cccc(c3)Nc3cc(ccn3)-c3cnc(nc3)N2C1` in the same way.
7.08e-07 M

Further, for CC1CN2CCN1Cc1cccc(c1)Nc1cc(ccn1)-c1cnc(nc1)N1CCCC1CCNC(=O)C2 (stereo not shown) [Compound 47] ?
4.17e-07 M

Cool, now `CN1CCCNc2ncc(cn2)-c2ccnc(c2)Nc2cccc(c2)CN2CCN(CC2)CC1=O`
9.12e-06 M

// repeat for COC(=O)C1CCNC(=O)CN2CCN(CC2)Cc2cccc(c2)Nc2cc(ccn2)-c2cnc(nc2)N1 (single isomer, unassigned) [Compound 118] and report
1.55e-05 M
